# test_description: Pharmacokinetic parameters following intravenous administration in rats (B-6)
# Type: in vivo, male Wistar rats
# condition_info: male, Wistar, rat, plasma, mean residence time
Note to self: use fulfilled only for MRT readings below 5 h; a reading exactly at 5 h still gets not fulfilled.

> print(dat)
                                   molecule  discrete.label
1  Cc1cc(OCc2c(F)ccc(F)c2F)n2nc(C3CC3)c(C(=O)NCC(C)(N)CCC(F)(F)F)c2c1 (single isomer, unassigned; enantiomer b)       fulfilled
2  Cc1cc(OCc2c(F)cccc2F)n2nc(C)c(C(=O)NCC(C)(N)CCC(F)(F)F)c2c1 (single isomer, unassigned)   not fulfilled
3  CCCC(C)(N)CNC(=O)c1c(C)nn2c(OCc3c(F)cccc3F)cc(C)cc12 (single isomer, unassigned)   not fulfilled

Please determine if Cc1cc(OCc2c(F)ccc(F)c2F)n2nc(C)c(C(=O)NCC(C)(N)CCC(F)(F)F)c2c1 (single isomer, unassigned; enantiomer b) is below 5 h in terms of MRT.
fulfilled

Please determine if CCCC(C)(N)CNC(=O)c1c(C2CC2)nn2c(OCc3c(F)cccc3F)cc(C)cc12 (single isomer, unassigned) is below 5 h in terms of MRT.
fulfilled

----------
# experimental_target: recombinant guanylate cyclase reporter cell line (Rattus norvegicus, UniProt P19686+P20595)
# Construct: expressed in transfected cells
# Sequence (P19686 1-690): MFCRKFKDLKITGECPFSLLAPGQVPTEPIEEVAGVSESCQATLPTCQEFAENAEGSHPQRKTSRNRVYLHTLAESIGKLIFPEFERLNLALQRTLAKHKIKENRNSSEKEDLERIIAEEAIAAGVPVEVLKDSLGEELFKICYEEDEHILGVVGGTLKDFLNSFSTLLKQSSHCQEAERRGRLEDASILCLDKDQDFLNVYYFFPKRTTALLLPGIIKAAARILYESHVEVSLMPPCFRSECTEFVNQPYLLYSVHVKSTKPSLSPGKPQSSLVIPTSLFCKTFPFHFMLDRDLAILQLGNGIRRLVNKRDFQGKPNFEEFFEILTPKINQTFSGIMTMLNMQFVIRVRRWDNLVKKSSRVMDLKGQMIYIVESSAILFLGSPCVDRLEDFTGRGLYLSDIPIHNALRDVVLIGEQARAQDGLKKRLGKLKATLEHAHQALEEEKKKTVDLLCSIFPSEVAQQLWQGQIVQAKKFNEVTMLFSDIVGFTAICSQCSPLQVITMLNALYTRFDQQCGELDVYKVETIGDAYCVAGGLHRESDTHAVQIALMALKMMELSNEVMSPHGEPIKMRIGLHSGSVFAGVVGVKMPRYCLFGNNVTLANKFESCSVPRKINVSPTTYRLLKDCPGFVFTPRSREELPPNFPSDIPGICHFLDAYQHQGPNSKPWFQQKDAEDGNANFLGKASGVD
# Sequence (P20595 1-619): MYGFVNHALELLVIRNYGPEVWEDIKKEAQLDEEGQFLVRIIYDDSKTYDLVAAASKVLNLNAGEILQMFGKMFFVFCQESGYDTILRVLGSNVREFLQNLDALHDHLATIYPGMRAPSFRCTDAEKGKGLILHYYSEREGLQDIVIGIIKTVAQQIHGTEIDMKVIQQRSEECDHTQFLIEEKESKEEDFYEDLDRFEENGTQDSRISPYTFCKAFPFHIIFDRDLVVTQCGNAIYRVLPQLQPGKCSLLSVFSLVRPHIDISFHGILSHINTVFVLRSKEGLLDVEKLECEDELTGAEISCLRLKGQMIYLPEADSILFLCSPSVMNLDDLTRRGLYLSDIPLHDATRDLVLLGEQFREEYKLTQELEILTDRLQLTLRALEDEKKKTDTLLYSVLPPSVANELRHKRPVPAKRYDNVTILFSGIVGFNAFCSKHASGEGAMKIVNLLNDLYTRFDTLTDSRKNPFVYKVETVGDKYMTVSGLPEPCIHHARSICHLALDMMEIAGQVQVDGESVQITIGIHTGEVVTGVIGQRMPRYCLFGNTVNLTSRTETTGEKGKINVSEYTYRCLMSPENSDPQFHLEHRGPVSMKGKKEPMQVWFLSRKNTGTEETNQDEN
# test_description: Effect on a recombinant guanylate cyclase reporter cell line (B-2)
# Type: cell-based
# condition_info: in some cases mean values for individual determinations
Structures can show the parent of a compound that is named as a salt.
measurement_type: MEC (minimum effective concentration)

> print(dat)
                                   molecule  result
1  Cc1cc(OCc2c(F)cccc2F)n2nc(C)c(C(=O)NCC(C)(N)CCF)c2c1 (single isomer, unassigned) [Example 49]  0.3 µM
2  Cc1cc(OCc2c(F)ccc(F)c2F)n2nc(C)c(C(=O)NCC(C)(N)CCC(F)(F)F)c2c1 (single isomer, unassigned; enantiomer b)  0.1 µM
3  CCCC(C)(N)CNC(=O)c1c(C)nn2c(OCc3c(F)cccc3F)cc(C3CC3)cc12 (racemic)  3.0 µM
4  Cc1cc(OCc2c(F)cccc2F)n2nc(C)c(C(=O)NCC(N)c3cccc(OCCO)c3)c2c1 (racemic) [Example 72, trifluoroacetate]   10 µM
5  Cc1cc(OCc2c(F)cccc2F)n2nc(C)c(C(=O)NCC(N)c3csc(C)n3)c2c1 (racemic) [Example 73, trifluoroacetate]  3.0 µM

// query MEC (minimum effective concentration) value for entry Cc1cc(OCc2c(F)cccc2F)n2nc(C)c(C(=O)N[C@@H](CC(=O)OC(C)(C)C)CC(C)C)c2c1
10 µM

----------
# experimental_target: recombinant guanylate cyclase reporter cell line (Rattus norvegicus, UniProt P19686+P20595)
# Construct: expressed in transfected cells
# Sequence (P19686 1-690): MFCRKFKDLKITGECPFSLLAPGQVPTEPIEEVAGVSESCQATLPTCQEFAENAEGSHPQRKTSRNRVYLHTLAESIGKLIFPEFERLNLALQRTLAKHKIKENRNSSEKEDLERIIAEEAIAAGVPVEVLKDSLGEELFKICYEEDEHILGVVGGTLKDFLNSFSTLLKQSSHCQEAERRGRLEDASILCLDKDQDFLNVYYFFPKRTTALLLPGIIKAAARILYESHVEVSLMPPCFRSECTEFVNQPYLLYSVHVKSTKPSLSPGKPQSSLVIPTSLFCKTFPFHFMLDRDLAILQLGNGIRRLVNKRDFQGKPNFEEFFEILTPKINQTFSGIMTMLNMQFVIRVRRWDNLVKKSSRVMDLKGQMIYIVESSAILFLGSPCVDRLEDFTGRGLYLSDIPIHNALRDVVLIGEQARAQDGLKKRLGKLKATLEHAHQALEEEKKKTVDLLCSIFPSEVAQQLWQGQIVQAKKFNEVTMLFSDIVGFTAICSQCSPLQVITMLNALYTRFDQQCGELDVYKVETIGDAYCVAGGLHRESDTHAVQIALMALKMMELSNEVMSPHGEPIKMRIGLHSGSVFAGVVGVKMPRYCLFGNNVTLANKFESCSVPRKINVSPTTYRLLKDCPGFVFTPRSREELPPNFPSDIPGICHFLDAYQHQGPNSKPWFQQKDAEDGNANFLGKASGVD
# Sequence (P20595 1-619): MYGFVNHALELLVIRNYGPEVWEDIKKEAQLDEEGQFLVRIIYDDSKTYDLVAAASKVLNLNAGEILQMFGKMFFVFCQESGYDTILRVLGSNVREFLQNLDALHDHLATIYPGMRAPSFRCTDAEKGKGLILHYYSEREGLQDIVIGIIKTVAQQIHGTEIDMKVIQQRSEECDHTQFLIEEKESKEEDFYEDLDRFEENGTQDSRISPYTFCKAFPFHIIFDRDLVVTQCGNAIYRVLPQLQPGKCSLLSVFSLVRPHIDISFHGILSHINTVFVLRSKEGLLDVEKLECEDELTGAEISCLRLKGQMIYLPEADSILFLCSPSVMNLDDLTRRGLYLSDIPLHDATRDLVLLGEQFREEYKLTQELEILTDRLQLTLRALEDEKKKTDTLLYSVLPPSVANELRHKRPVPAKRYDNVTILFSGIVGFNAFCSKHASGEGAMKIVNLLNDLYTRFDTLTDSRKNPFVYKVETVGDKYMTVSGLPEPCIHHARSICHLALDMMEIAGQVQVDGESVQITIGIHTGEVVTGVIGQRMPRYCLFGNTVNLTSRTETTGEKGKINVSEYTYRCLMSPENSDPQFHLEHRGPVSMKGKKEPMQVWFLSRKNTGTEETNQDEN
# test_description: Effect on a recombinant guanylate cyclase reporter cell line (B-2)
# Format: cell-based
# condition_info: in some cases mean values for individual determinations
Structures can show the parent of a compound that is named as a salt.
Listing of entries alongside the reported MEC (minimum effective concentration).
Reply numerically in µM, unit not repeated.

Below are worked cases with known answers.
> print(dat)
                                   compound                       measurement.type  number
1  CCCC(C)(N)CNC(=O)c1c(C)nn2c(OCc3c(F)cccc3F)cc(CC)cc12 (racemic)  MEC (minimum effective concentration)     0.3
2  Cc1cc(OCc2c(F)cccc2F)n2nc(C)c(C(=O)NC3CCC(N)C3)c2c1 (racemic)  MEC (minimum effective concentration)     3.0
3  C=Cc1cccc(C(N)CNC(=O)c2c(C)nn3c(OCc4c(F)cccc4F)cc(C)cc23)c1 (racemic)  MEC (minimum effective concentration)     3.0
4  Cc1cc(OCc2c(F)cccc2F)n2nc(C)c(C(=O)NC3CC(C)(C)C3N)c2c1 (stereo not drawn)  MEC (minimum effective concentration)     3.0
5  COC(=O)c1cccc(C(N)CNC(=O)c2c(C)nn3c(OCc4c(F)cccc4F)cc(C)cc23)c1 (racemic)  MEC (minimum effective concentration)      10
6  CCCC(C)(N)CNC(=O)c1c(C)nn2c(OCc3ncccc3F)cc(C)cc12 (racemic)  MEC (minimum effective concentration)      10
7  Cc1cc(OCc2c(F)cccc2F)n2nc(C)c(C(=O)NCCN3CCN(C)CC3)c2c1  MEC (minimum effective concentration)      10
8  Cc1cc(OCc2c(F)cccc2F)n2nc(C)c(C(=O)Nc3ccnc4ccc(F)cc34)c2c1 [Example 80, trifluoroacetate]  MEC (minimum effective concentration)    0.03

// query MEC (minimum effective concentration) value for entry Cc1cc(OCc2c(F)cccc2F)n2nc(C)c(C(=O)NC(C#N)c3ccc(Cl)cc3)c2c1 (racemic)
0.3

// query MEC (minimum effective concentration) value for entry Cc1cc(OCc2c(F)cccc2F)n2nc(C)c(C(=O)Nc3ccc(N4CCNCC4)c(C(F)(F)F)c3)c2c1
3.0

// query MEC (minimum effective concentration) value for entry Cc1cc(OCc2c(F)cccc2F)n2nc(C)c(C(=O)N[C@H](CO)c3ccc(C)o3)c2c1
1.0

// query MEC (minimum effective concentration) value for entry Cc1cc(OCc2c(F)cccc2F)n2nc(C)c(C(=O)NCC(C)(N)COc3ccc(F)c(F)c3)c2c1 (racemic)
3.0

// query MEC (minimum effective concentration) value for entry Cc1cc(OCc2c(F)cccc2F)n2nc(C)c(C(=O)NCC(C)(N)CC(F)F)c2c1 (single isomer, unassigned) [Example 47]
1.0

// query MEC (minimum effective concentration) value for entry Cc1cc(OCc2c(F)cccc2F)n2nc(C)c(C(=O)NCC(C)(N)CCF)c2c1 (single isomer, unassigned) [Example 50]
0.3

// query MEC (minimum effective concentration) value for entry Cc1cc(OCc2c(F)cccc2F)n2nc(C)c(C(=O)NCC(N)c3ccc4c(c3)OCCO4)c2c1 (racemic)
3.0
